# measurement.target: 5-hydroxytryptamine receptor 1A (Rattus norvegicus, UniProt P19327)
# Sequence (P19327 whole entry): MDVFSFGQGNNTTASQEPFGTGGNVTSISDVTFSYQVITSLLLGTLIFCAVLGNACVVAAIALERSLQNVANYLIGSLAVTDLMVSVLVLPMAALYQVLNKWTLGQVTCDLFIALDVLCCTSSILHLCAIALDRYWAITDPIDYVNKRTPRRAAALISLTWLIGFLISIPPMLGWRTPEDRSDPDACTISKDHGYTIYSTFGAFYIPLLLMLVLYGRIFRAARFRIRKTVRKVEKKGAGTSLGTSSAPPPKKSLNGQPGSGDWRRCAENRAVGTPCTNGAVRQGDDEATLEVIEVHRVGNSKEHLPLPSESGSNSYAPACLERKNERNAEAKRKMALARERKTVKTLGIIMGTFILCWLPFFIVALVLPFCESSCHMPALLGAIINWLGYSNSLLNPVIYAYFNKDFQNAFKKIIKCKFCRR
Field: pKi. Provide a value for each of the molecules that follow.
Answers are plain numbers, as −log10 of the molar value.

Sample records with pKi:
Task item: Recorded pKi for COc1ccc2[nH]cc(CCN(C)C)c2c1 , please?
Reply: 7.16

Task item: Given COc1ccc2occ(CC(C)N)c2c1 (racemic) , state its recorded pKi.
Reply: 6.35

Batch lookup, pKi per entry.
1. COc1ccc2occ(CC(C)N)c2c1 (stereo in doubt; 4)
2. COc1ccc2occ(CCN(C)C)c2c1

Reply:
[6.11, 7.00]

Entry source: ChEMBL document CHEMBL1126062
